We begin with a simple list: items and their reported GI50.
Tested on: LXFL 529
Assay: NCI tumour cell line growth inhibition, 48 h
Activity calls are given as the source filed them. Cut-off read from the data, not from the text of the source: active = GI50 up to about 1.1 µM and inactive = higher.
MEASURE_NAME: GI50

compound="NC(CCc1nc(-c2ccccc2)cs1)C(=O)O (stereo unspecified)" result="> 100 µM (inactive)"
compound=NC(=O)Cn1c(=O)[nH]c(=O)c2[nH]cnc21 result="> 100 µM (inactive)"
compound=CC1=C(C(=O)CC(=O)C(=O)Nc2ccc(C)c(C)c2)Sc2ccccc2N1 result="> 100 µM (inactive)"
compound="N/N=C1\\C(=O)N(C2CCCCC2)C(=O)C1C(=O)NC1CCCCC1 (stereo unspecified)" result="> 100 µM (inactive)"
compound=O=C1/C(=C/c2ccc(Cl)c(Cl)c2)CN(C(=O)CCN2CCOCC2)C/C1=C\c1ccc(Cl)c(Cl)c1 result="1.56 µM (inactive)"
compound="CC1(C)OCC([C@H]2CC23SCCCS3)O1 (stereo partly specified)" result="> 100 µM (inactive)"

----------
Tested on: SN12C
Experiment: NCI tumour cell line growth inhibition, 48 h
Calls of active or inactive are those of the source. Cut-off read from the data, not from the text of the source: active = GI50 up to about 1.1 µM and inactive = higher.
MEASURE_NAME: GI50

molecule="O=C(CC1(O)C(=O)Nc2ccc(Br)cc21)c1ccc(Cl)cc1 (configuration not stated)" target_or_system=SN12C result="77.8 µM (inactive)"
molecule="COC(=O)c1cccc(C)c1C1CN=NC12Cc1c(ccc(C)c1C)C2=O (configuration not stated)" target_or_system=SN12C result="13.6 µM (inactive)"
molecule="CCC(C)N1CN(c2ccccc2)C2(CCN(CCCC3(c4ccc(F)cc4)OCCO3)CC2)C1=O (configuration not stated)" target_or_system=SN12C result="7.24 µM (inactive)"
molecule="CCOC(=O)CCC1(C(=O)O[C@@H]2C[C@H](C)CC[C@H]2C(C)C)CCCCC1=O (some centres not stated)" target_or_system=SN12C result="> 100 µM (inactive)"
molecule=O=C(/C=C/c1ccccc1Cl)c1ccc(Cl)c(Cl)c1 target_or_system=SN12C result="> 100 µM (inactive)"
molecule=O=C(NCCCCCCNC(=O)OCCSCCn1cc(C(=O)NC(=O)OCc2ccccc2)c(=O)[nH]c1=O)OCCSCCn1cc(C(=O)NC(=O)OCc2ccccc2)c(=O)[nH]c1=O target_or_system=SN12C result="> 100 µM (inactive)"
molecule="NC1=NN(c2ccccc2)C(=O)C1/C(=N\\NC(=O)c1cc2ccccc2cc1O)C(=O)Nc1nc([N+](=O)[O-])cs1 (configuration not stated)" target_or_system=SN12C result="37 µM (inactive)"
molecule=Cc1ccc(-n2nncc2[Si](C)(C)C)s1 target_or_system=SN12C result="> 100 µM (inactive)"
molecule="NC(CCc1nc(-c2ccccc2)cs1)C(=O)O (configuration not stated)" target_or_system=SN12C result="> 100 µM (inactive)"
molecule="C[n+]1cc(C(O)c2ccc3c(c2)OCO3)c2ccccc2c1 (configuration not stated)" target_or_system=SN12C result="40.6 µM (inactive)"
molecule="O=C1CC(NC(=O)C(F)(F)F)c2c1csc2Br (configuration not stated)" target_or_system=SN12C result="68.4 µM (inactive)"
molecule=COS(C)(=O)=O target_or_system=SN12C result="> 2 µM (inactive)"
molecule=C=C1[C@H](OC(C)=O)[C@H]2[C@@H](OC(C)=O)[C@@H](C)C[C@]2(C)C(=O)[C@H](C)/C=C/C(C)(C)C(=O)[C@H](OCC(C)C)[C@H]1OC(C)=O target_or_system=SN12C result="> 25 µM (inactive)"
molecule=O=[PH](O)c1cc2c3ccccc3ccc2c2ccccc12 target_or_system=SN12C result="> 100 µM (inactive)"
molecule="CCCCCCCCCCCCCCCC(=O)OCC1CCCN2CCCCC12 (configuration not stated)" target_or_system=SN12C result="> 100 µM (inactive)"
molecule="CC(C)(C)O/C=C1/C(=O)OC2C[C@@H](O[Si](C)(C)C(C)(C)C)CC12 (some centres not stated)" target_or_system=SN12C result="34.7 µM (inactive)"
molecule="COc1cccc2c1OC(c1ccc(Cl)cc1)C([N+](=O)[O-])=C2 (configuration not stated)" target_or_system=SN12C result="2.35 µM (inactive)"
molecule=O=C(CNc1nccs1)Nn1cnc2ccc(S(=O)(=O)Nc3nccs3)cc2c1=O target_or_system=SN12C result="> 100 µM (inactive)"
molecule=CC(=O)/C=C1\CC(=O)Nc2ccccc2N1 target_or_system=SN12C result="> 100 µM (inactive)"
molecule="COC(=O)c1ccc(COC(=O)N2C=CCC2C(=O)O)cc1 (configuration not stated)" target_or_system=SN12C result="> 100 µM (inactive)"
molecule=COc1ccc(OC)c(/C=N/N=C2\C(=O)Nc3c(Cl)cc(Cl)cc32)c1 target_or_system=SN12C result="> 100 µM (inactive)"
molecule="CCCC(=O)N[C@H]1C2C3CC4C5CC(C42)C1(C)C53 (some centres not stated)" target_or_system=SN12C result="> 100 µM (inactive)"
molecule="CCCCCCCCCCCCCCCCCCN(C)C(COC)COP(=O)([O-])OCC[N+](C)(C)C (configuration not stated)" target_or_system=SN12C result="4.23 µM (inactive)"
molecule="C=CCc1c(O)c2c(c3oc(=O)cc(C)c13)CC(C)O2 (configuration not stated)" target_or_system=SN12C result="> 100 µM (inactive)"
molecule="CCOC(=O)C1CC(=O)C=C2CCCCC21 (configuration not stated)" target_or_system=SN12C result="> 100 µM (inactive)"
molecule=COC(=O)C(CCS(=O)(=O)CC(=O)C(=O)Nc1cccc(C(C)=O)c1)C(=O)OC target_or_system=SN12C result="> 100 µM (inactive)"
molecule=Cc1[nH]c(=O)c2oc3cc4ccccc4cc3c2c1C(=O)O target_or_system=SN12C result="> 10 µM (inactive)"
molecule=Cn1ccnc1CCc1ccc(Cl)cc1Cl target_or_system=SN12C result="> 100 µM (inactive)"
molecule="CC(=O)C1C(=O)C(=O)N(c2cccc(C)c2C)C1=O (configuration not stated)" target_or_system=SN12C result="> 100 µM (inactive)"
molecule="Cc1cc(OC2OC(CO)C(O)C(O)C2O)ccc1O (configuration not stated)" target_or_system=SN12C result="> 100 µM (inactive)"
molecule="OCCCCCCCCCCCOc1ccc(C2OCC3(CO2)COC(c2ccc(OCCCCCCCCCCCO)cc2)OC3)cc1 (configuration not stated)" target_or_system=SN12C result="> 50 µM (inactive)"
molecule="CC1(C)[N+]([O-])=[N+]([O-])C1(C)O (configuration not stated)" target_or_system=SN12C result="> 100 µM (inactive)"
molecule=CN(C)Cc1cc(C(=O)/C=C/c2ccc(Cl)cc2)cc(CN(C)C)c1O target_or_system=SN12C result="10.8 µM (inactive)"
molecule=CN(C)c1ccc(C=C2C(=O)N(c3ccccc3)N(c3ccccc3)C2=O)cc1 target_or_system=SN12C result="> 100 µM (inactive)"
molecule=CC(=O)Oc1c2c(c3n(c1=O)CCCC3)C(=O)N(c1ccccc1)C2=O target_or_system=SN12C result="83.2 µM (inactive)"
molecule=O=C(O)CNC(=O)c1ccccc1O target_or_system=SN12C result="> 100 µM (inactive)"
molecule=O=S(=O)(O)c1cc(O)c(/N=N/c2ccc(O)cc2O)c2ccccc12 target_or_system=SN12C result="> 100 µM (inactive)"
molecule=CCOC(=O)c1cc2c([nH]1)c(OC(C)=O)cc1c2ccn1Cc1ccccc1 target_or_system=SN12C result="> 100 µM (inactive)"
molecule=CCCCCCC(N)(CCCCCC)C(=O)Nn1c(C)ccc1C target_or_system=SN12C result="> 100 µM (inactive)"
molecule="COC(=O)C(C(=O)C(=O)Nc1nnc(S)[nH]1)c1csc(-n2nc(-c3ccccc3)cc2-c2ccccc2)n1 (configuration not stated)" target_or_system=SN12C result="> 100 µM (inactive)"
molecule=Nn1c(-c2cccc(Cl)c2)nc2ccccc2c1=O target_or_system=SN12C result="> 100 µM (inactive)"
molecule="C[C@H]1CC[P+](Cc2ccccc2)(c2ccccc2)C1 (some centres not stated)" target_or_system=SN12C result="> 100 µM (inactive)"

----------
System: A498
Assay: NCI tumour cell line growth inhibition, 48 h
Active and inactive are the calls of the source. Cut-off read from the data, not from the text of the source: active = GI50 up to about 1.1 µM and inactive = higher.
Classes used: Yes for active, No for inactive

molecule="Nc1ccc(C(=O)CC2(O)C(=O)Nc3ccccc32)cc1 (stereo unspecified)" label=No
molecule="CC(C)=CC1CC(C)C2(CCC3(C)CC4C(C(=O)CC4(C)O)/C(C=O)=C\\CC32)O1 (stereo unspecified)" label=Yes
molecule="CC(C)=CCC/C(C)=C/CCC1(C)C2COC(=O)C21 (stereo unspecified)" label=No
molecule="COc1cc2c(c3oc4c(O)cccc4c(=O)c13)CC(C(C)(O)CCl)O2 (stereo unspecified)" label=No
molecule=CNC1=C/C(=N/C2=CC(=N/C(=C\C#N)C(C)(C)O)/OC2(C)C)OC1(C)C label=No
molecule=CCCC(=O)NC1=C(Cl)C(=O)c2ccccc2C1=O label=No
molecule="NC(=O)CCC(NC(=O)c1c2ccccc2nc2ccccc12)C(=O)O (stereo unspecified)" label=No
molecule=CCCCNCC(=O)O[C@]1(CC)C(=O)OCc2c1cc1n(c2=O)Cc2cc3ccccc3nc2-1 label=Yes
molecule=NS(=O)(=O)c1ccc2c(c1)OCCOCCOCCOCCO2 label=No
molecule="CCC(CCCN)Nc1cc(OC)cc2c(C)ccnc12 (stereo unspecified)" label=No
molecule=CC(C)=CCc1[nH]c2ccccc2c1C1=C(O)C(=O)C(c2c(CC=C(C)C)[nH]c3ccccc23)=C(O)C1=O label=No
molecule=N=C/N=C/C(=S)O[C@@H]1C(=O)N2CCC[C@@]23CCCC[C@@H]13 label=No
molecule=COc1ccc(/C(Cl)=C(\C=O)c2ccc(F)cc2)cc1OC label=No
molecule=COc1ccccc1NC(=O)CC(=O)n1nc(C)c(/N=N/c2ccccc2Cl)c1C label=No
molecule="CC1CC(C2=CC=CCS2)=Nc2ccccc2S1 (stereo unspecified)" label=No
molecule="O=CC(O)C(O)C(O)C(O)C(=O)NCCCCCCCCCCCCNC(=O)C(O)C(O)C(O)C(O)C=O (stereo unspecified)" label=No
molecule="CC(=O)OC1CCC2(C)C3CCC4(C)C(c5ccc(=O)oc5)CC5OC54C3CCC2(O)C1 (stereo unspecified)" label=No
molecule=Cn1nnnc1SC(F)(F)c1nc2ccccc2o1 label=No
molecule="CC(=O)OC1CC2C(C)(C)C(=O)C=C[C@]2(C)C2CCC3(C)C(c4ccoc4)[C@@H](O)[C@H]4O[C@]43[C@]12C (stereo partly specified)" label=No
molecule=Cc1ccc(C2=C(Cl)C(=O)C(c3ccc(C)cc3)=C(Cl)C2=O)cc1 label=No
molecule=COC(=O)[C@@H](COC(=O)/C=C/c1ccc(OC(C)=O)c(OC(C)=O)c1)NC(=O)/C=C/c1ccc(OC(C)=O)c(OC(C)=O)c1 label=No
molecule="CC(=O)O[C@H]1CCC2[C@@H]3CCC4Nc5[nH]ncc5C[C@]4(C)C3CC[C@@]21C (stereo partly specified)" label=No
molecule="CCCCCCCCC[C@@H]1CC(=O)OCC2OC(O[C@H](CCCCCCCCC)CC(=O)OCC3OC(O[C@H](CCCCCCCCC)CC(=O)OCC4OC(O1)C(O)C(O)C4O)C(O)C(O)C3O)C(O)C(O)C2O (stereo partly specified)" label=No
molecule=COc1cccc(/C=N/n2c(C)n[nH]c2=O)c1 label=No
molecule="COc1ccc(OC2OC(CO)C(O)C(O)C2O)cc1 (stereo unspecified)" label=No
molecule=O=C1/C(=C/c2cccnc2)SC(=S)N1Cc1ccco1 label=No
